Ref: patent US20120276102A1

Known IC50, Human IL-21R-BaF3 Neutralization Assay of a selection of binders
# ASSAY TARGET: human IL-21R expressed on cells (human, UniProt Q9HBE5 20-538)
# Sequence (Q9HBE5 20-538 limits assumed): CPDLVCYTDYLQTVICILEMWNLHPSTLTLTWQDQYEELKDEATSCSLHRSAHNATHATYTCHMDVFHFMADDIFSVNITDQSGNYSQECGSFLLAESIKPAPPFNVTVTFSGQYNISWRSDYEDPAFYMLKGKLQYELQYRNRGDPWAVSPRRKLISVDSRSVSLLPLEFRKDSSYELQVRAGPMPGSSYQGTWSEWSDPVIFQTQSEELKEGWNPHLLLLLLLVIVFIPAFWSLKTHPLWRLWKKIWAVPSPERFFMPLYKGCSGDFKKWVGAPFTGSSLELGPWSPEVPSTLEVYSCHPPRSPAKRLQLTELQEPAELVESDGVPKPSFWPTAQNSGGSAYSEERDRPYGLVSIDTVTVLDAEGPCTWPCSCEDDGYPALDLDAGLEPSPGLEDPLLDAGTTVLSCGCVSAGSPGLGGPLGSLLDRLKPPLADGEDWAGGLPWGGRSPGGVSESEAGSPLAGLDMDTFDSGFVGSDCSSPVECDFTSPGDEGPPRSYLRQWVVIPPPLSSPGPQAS
# ASSAY NAME: cell-based or functional assay
PROPERTY LABEL: IC50, Human IL-21R-BaF3 Neutralization Assay (nM)

BINDER: scFv L10 (scFv) scFv: QVQLQESGPGLVKTSETLSLTCAVSGYSISSGYYWGWIRQPPGKGLEWIGSISHTGNTYYNPPLKSRVTISVDTSKNQFSLKLSSVTAADTAVYYCARGGGISRPEYWGKGTLVTVSSGGGGSGGGGSGGGGSALSSELTQDPPVSVALGQTVTLTCQGDSLRTYYASWYQQKSGQAPILLLYGKHKRPSGIPDRFSGSTSGDTASLTITGAQAEDEADYYCISRSIYGNPHVLFGGGTQLTVL
ASSAY VALUE: 15.1
--
BINDER: scFv L13 (scFv) scFv: QVQLQESGPGLVKTSETLSLTCAVSGYSISSGYYWGWIRQPPGKGLEWIGSISHTGNTYYNPPLKSRVTISVDTSKNQFSLKLSSVTAADTAVYYCARGGGISRPEYWGKGTLVTVSSGGGGSGGGGSGGGGSALSSELTQDPPVSVALGQTVTLTCQGDSLRTYYASWYQQKSGQAPILLLYGKHKRPSGIPDRFSGSTSGDTASLTITGAQAEDEADYYCVTRNRYGNPHVLFGGGTQLTVL
ASSAY VALUE: 11
--
BINDER: scFv L9 (scFv) scFv: QVQLQESGPGLVKTSETLSLTCAVSGYSISSGYYWGWIRQPPGKGLEWIGSISHTGNTYYNPPLKSRVTISVDTSKNQFSLKLSSVTAADTAVYYCARGGGISRPEYWGKGTLVTVSSGGGGSGGGGSGGGGSALSSELTQDPPVSVALGQTVTLTCQGDSLRTYYASWYQQKSGQAPILLLYGKHKRPSGIPDRFSGSTSGDTASLTITGAQAEDEADYYCVARSNKGNPHVLFGGGTQLTVL
ASSAY VALUE: 2.8
--
BINDER: scFv H6 (scFv) scFv: QVQLQESGPGLVKTSETLSLTCAVSGYSISSGYYWGWIRQPPGKGLEWIGSISHTGNTYYNPPLKSRVTISVDTSKNQFSLKLSSVTAADTAVYYCARFFGFGRPEYWGKGTLVTVSSGGGGSGGGGSGGGGSALSSELTQDPPVSVALGQTVTLTCQGDSLRTYYASWYQQKSGQAPILLLYGKHKRPSGIPDRFSGSTSGDTASLTITGAQAEDEADYYCNSRDSSGNPHVLFGGGTQLTVL
ASSAY VALUE: 13.8
